Tested on: morning glory (Ipomoea hederacea)
Assay: Test B preemergence
Assay type: in vivo
Conditions: preemergence; Rate 125 g/ha; scale of 0 to 100 where 0 is no effect and 100 is complete control; 13 to 15 days
Procedure: […] At the same time, plants selected from these crop and weed species and also blackgrass (Alopecurus myosuroides), wheat (Triticum aestivum) and wild oat (Avena fatua) were treated with postemergence applications of test chemicals formulated in the same manner. […] Treated plants and controls were maintained in a greenhouse for 13 to 15 days, after which time all species were compared to controls and visually evaluated. […]
assay readout: Plant response rating, Morningglory
Format: numeric value only, no unit, no commentary.

Check out these entries, answers already filled in.
* CCOc1cc(N2CCC(n3ccc(C(C)(C)C)n3)C2=O)ccc1C (stereo not drawn) | 100
* CCCC(C)c1ccn(C2CCN(c3ccc(Cl)c(OC)c3)C2=O)n1 (stereo not drawn) | 20
* CCC(C)c1ccn(C2CCN(c3ccc(F)c(C(F)(F)F)c3)C2=O)n1 (stereo not drawn) | 0
* CCC(CC)c1ccn(C2CCN(c3cccc(OC(C)C)c3)C2=O)n1 (stereo not drawn) | 0
* CCCC(C)c1ccn(C2OCN(c3cccc(OC(F)(F)F)c3)C2=O)n1 (stereo not drawn) | 0
* COc1cc(N2CCC(n3ccc(C(C)(C)C)n3)C2=O)ccc1Cl (stereo not drawn) | 80
* CCCCC(CCCC)c1ccn(C2OCN(c3cccc(C(F)(F)F)c3)C2=O)n1 (stereo not drawn) | 0
* COc1ccn(C2CCN(c3cccc(C(F)(F)F)c3)C2=O)n1 (stereo not drawn) | 0

Now for a further compound.
Recorded Plant response rating, Morningglory for Cc1cc(C)nc(N2CCC(n3ccc(C(C)(C)C)n3)C2=O)c1 (stereo not drawn) , please?
90

Value source: patent US7138361B2
